Catalogue of Tmax readings, one per entry.
Test: Tmax in Hartley guinea pig at 10 mg/kg, po administered as single dose
Assay type: ADME, organism-based, Cavia porcellus
Conditions: in vivo
Give me the value, and tack the unit on after it.

Study these solved cases before continuing.
1. CCS(=O)(=O)N1CCN(c2ccc(OC[C@@H]3CO[C@@](Cn4ccnc4)(c4ccc(Cl)cc4Cl)O3)cc2)CC1 70.2 min
2. N#CCS(=O)(=O)N1CCN(c2ccc(OC[C@@H]3CO[C@@](Cn4ccnc4)(c4ccc(Cl)cc4Cl)O3)cc2)CC1 40.2 min
3. O=S(=O)(C1CC1)N1CCN(c2ccc(OC[C@@H]3CO[C@@](Cn4ccnc4)(c4ccc(Cl)cc4Cl)O3)cc2)CC1 90 min

Let us move to another entry and its Tmax.
**Q:** Which Tmax is reported for this compound? `CC(C)S(=O)(=O)N1CCN(c2ccc(OC[C@@H]3CO[C@@](Cn4ccnc4)(c4ccc(Cl)cc4Cl)O3)cc2)CC1`
**A:** 40.2 min

----------
Assay: Cmax in Hartley guinea pig at 1 mg/kg, iv administered as single dose
Assay type: ADME, organism-based, Cavia porcellus
Parameters: dose 1 mg/kg, route intravenous
Settings: in vivo
Catalogue of Cmax readings, one per entry.
Output spec: scalar in ng/mL, unitless text.

1) CCS(=O)(=O)N1CCN(c2ccc(OC[C@@H]3CO[C@@](Cn4ccnc4)(c4ccc(Cl)cc4Cl)O3)cc2)CC1 446
2) O=S(=O)(C1CC1)N1CCN(c2ccc(OC[C@@H]3CO[C@@](Cn4ccnc4)(c4ccc(Cl)cc4Cl)O3)cc2)CC1 514
3) CC(C)S(=O)(=O)N1CCN(c2ccc(OC[C@@H]3CO[C@@](Cn4ccnc4)(c4ccc(Cl)cc4Cl)O3)cc2)CC1 534

**Q:** Which Cmax is reported for this compound? `N#CCS(=O)(=O)N1CCN(c2ccc(OC[C@@H]3CO[C@@](Cn4ccnc4)(c4ccc(Cl)cc4Cl)O3)cc2)CC1`
**A:** 2090

----------
Catalogue of Vd readings, one per entry.
Experiment: Volume of distribution in Hartley guinea pig at 1 mg/kg, iv administered as single dose
Assay type: ADME, organism-based, Cavia porcellus
Settings: in vivo
Give me the value, and tack the unit on after it.

Study these solved cases before continuing.
1. N#CCS(=O)(=O)N1CCN(c2ccc(OC[C@@H]3CO[C@@](Cn4ccnc4)(c4ccc(Cl)cc4Cl)O3)cc2)CC1 2.5 L/kg
2. CCS(=O)(=O)N1CCN(c2ccc(OC[C@@H]3CO[C@@](Cn4ccnc4)(c4ccc(Cl)cc4Cl)O3)cc2)CC1 4.4 L/kg

**Q:** Which Vd is reported for this molecule? `O=S(=O)(C1CC1)N1CCN(c2ccc(OC[C@@H]3CO[C@@](Cn4ccnc4)(c4ccc(Cl)cc4Cl)O3)cc2)CC1`
**A:** 2.9 L/kg

**Q:** Which Vd is reported for this molecule? `CC(C)S(=O)(=O)N1CCN(c2ccc(OC[C@@H]3CO[C@@](Cn4ccnc4)(c4ccc(Cl)cc4Cl)O3)cc2)CC1`
**A:** 3 L/kg

----------
Assay: Tmax in Hartley guinea pig at 1 mg/kg, iv administered as single dose
Assay type: ADME, organism-based, Cavia porcellus
Settings: in vivo
observable: Tmax (min)
Output spec: scalar in min, unitless text.

Study these solved cases before continuing.
1. CC(C)S(=O)(=O)N1CCN(c2ccc(OC[C@@H]3CO[C@@](Cn4ccnc4)(c4ccc(Cl)cc4Cl)O3)cc2)CC1 11.4
2. CCS(=O)(=O)N1CCN(c2ccc(OC[C@@H]3CO[C@@](Cn4ccnc4)(c4ccc(Cl)cc4Cl)O3)cc2)CC1 6
3. N#CCS(=O)(=O)N1CCN(c2ccc(OC[C@@H]3CO[C@@](Cn4ccnc4)(c4ccc(Cl)cc4Cl)O3)cc2)CC1 4.8

Let us move to another entry and its Tmax.
**Q:** Which Tmax is reported for this molecule? `O=S(=O)(C1CC1)N1CCN(c2ccc(OC[C@@H]3CO[C@@](Cn4ccnc4)(c4ccc(Cl)cc4Cl)O3)cc2)CC1`
**A:** 4.8

Where these numbers come from: ChEMBL document CHEMBL3867461
